Target: Acetylcholinesterase from Electrophorus electricus (electric eel) (Electrophorus electricus)
Sequence (O42275 24-633): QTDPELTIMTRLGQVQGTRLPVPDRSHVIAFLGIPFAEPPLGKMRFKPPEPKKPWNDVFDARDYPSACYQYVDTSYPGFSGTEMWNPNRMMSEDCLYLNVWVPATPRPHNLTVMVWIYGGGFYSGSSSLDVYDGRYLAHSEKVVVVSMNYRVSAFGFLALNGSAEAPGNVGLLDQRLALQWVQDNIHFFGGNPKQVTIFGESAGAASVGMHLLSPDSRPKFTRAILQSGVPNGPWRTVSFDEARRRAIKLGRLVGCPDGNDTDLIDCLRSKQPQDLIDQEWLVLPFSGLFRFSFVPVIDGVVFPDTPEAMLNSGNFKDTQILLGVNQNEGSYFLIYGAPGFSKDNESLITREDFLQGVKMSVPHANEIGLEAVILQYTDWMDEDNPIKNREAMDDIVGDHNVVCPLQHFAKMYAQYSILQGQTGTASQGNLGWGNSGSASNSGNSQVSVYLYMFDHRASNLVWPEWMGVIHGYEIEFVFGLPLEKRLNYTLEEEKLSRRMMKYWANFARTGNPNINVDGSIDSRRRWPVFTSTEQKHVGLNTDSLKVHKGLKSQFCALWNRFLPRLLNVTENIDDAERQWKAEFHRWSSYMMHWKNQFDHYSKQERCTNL
pIC50: −log10 of the molar value.
Decide by pIC50: equal to or exceeding 6 means Condition met, less means Condition not met.

COMPOUND | QUALITATIVE_LABEL
CC1(C)CC[C@]2(C(=O)NC3CN4CCC3CC4)CC[C@]3(C)C(=CCC4[C@@]5(C)CCC(=O)C(C)(C)C5CC[C@]43C)C2C1 (mixture of isomers) [Compound 7] | Condition not met
C[C@@H]1CC[C@]2(C(=O)NC3CN4CCC3CC4)CC[C@]3(C)C(=CCC4[C@@]5(C)CCC(=O)C(C)(C)C5CC[C@]43C)C2[C@H]1C (mixture of isomers) [Compound 8] | Condition met
C=C(C)[C@@H]1CC[C@]2(C(=O)NC3CN4CCC3CC4)CC[C@]3(C)C(CCC4[C@@]5(C)Cc6c([nH]c7ccccc67)C(C)(C)C5CC[C@]43C)C12 (mixture of isomers) [Compound 10] | Condition not met
C=C(C)[C@@H]1CC[C@]2(C(=O)NC3CN4CCC3CC4)CC[C@]3(C)C(CCC4[C@@]5(C)CCC(=O)C(C)(C)C5CC[C@]43C)C12 (mixture of isomers) [Compound 6] | Condition not met
CC1(C)c2[nH]c3ccccc3c2C[C@@]2(C)C1CC[C@]1(C)C2CC=C2C3C[C@@](C)(C(=O)NC4CN5CCC4CC5)CC[C@]3(C)CC[C@]21C (mixture of isomers) [Compound 13] | Condition not met
CC1(C)CC[C@]2(C(=O)NC3CN4CCC3CC4)CC[C@]3(C)C(=CCC4[C@@]5(C)Cc6c([nH]c7ccccc67)C(C)(C)C5CC[C@]43C)C2C1 (mixture of isomers) [Compound 11] | Condition met
C[C@@H]1CC[C@]2(C(=O)NC3CN4CCC3CC4)CC[C@]3(C)C(=CCC4[C@@]5(C)Cc6c([nH]c7ccccc67)C(C)(C)C5CC[C@]43C)C2[C@H]1C (mixture of isomers) [Compound 12] | Condition not met

###

Biological target: recombinant human acetylcholinesterase (hAChE) (Homo sapiens, UniProt P22303)
Sequence (P22303 32-614): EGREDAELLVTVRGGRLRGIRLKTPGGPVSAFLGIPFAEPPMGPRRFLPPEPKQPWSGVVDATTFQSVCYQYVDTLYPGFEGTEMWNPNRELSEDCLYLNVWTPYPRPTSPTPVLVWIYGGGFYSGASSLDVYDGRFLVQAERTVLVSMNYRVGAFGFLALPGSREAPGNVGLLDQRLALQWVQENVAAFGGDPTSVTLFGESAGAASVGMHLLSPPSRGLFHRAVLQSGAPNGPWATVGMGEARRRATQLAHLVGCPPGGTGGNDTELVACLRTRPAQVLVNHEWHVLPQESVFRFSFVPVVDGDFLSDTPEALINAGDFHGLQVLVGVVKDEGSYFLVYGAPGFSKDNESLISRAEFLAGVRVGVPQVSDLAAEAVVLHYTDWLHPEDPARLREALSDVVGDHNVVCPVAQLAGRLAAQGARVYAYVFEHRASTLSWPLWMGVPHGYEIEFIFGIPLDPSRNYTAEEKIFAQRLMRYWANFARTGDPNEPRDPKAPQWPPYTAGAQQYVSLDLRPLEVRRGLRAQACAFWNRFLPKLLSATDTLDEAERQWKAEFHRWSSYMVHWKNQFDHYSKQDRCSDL
Assay: hAChE inhibition constants and inhibition type (Dixon and Cornish-Bowden plots)
Conditions: hAChE, ATC 0.1–1 mM, pH 8.0; read-out: Kci (competitive inhibition constant)
pKi: −log10 of the molar value.
REPORTED_PROPERTY: pKi

COMPOUND | STUDY_TARGET | VALUE_MEASURED
C[C@@H]1CC[C@]2(C(=O)NC3CN4CCC3CC4)CC[C@]3(C)C(=CCC4[C@@]5(C)CCC(=O)C(C)(C)C5CC[C@]43C)C2[C@H]1C (mixture of isomers) | recombinant human acetylcholinesterase (hAChE) (Homo sapiens, UniProt P22303) | 5.17
